Entries annotated with measured log10(IC50)
Test System: human TPH1 (Homo sapiens (Human))
Sequence (P17752 whole entry): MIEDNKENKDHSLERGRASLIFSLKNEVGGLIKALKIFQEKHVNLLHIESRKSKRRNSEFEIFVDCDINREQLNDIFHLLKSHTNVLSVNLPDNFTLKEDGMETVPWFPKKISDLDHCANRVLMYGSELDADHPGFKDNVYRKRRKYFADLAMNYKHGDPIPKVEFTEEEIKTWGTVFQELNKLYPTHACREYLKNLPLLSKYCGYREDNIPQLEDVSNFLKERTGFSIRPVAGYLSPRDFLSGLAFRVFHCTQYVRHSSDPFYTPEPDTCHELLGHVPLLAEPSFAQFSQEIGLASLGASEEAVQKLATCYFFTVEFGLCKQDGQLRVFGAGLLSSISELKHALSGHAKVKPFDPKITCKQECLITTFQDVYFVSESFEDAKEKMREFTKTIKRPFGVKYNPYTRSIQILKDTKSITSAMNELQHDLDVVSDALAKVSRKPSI
Protocol: Biochemical in vitro assay using fluorescence readout (TPH1 inhibition)
Conditions Used: full length human TPH1, 40 μM L-tryptophan, 15° C., 60 minutes, fluorescence at 540 nm; mean if determined several times
Quantity Name: log10(IC50) (log10 of the value in µM)

Molecule	Test System	log10(IC50)
Cc1nn2c3c(nc2s1)CCN(C(=O)COc1ccc(N2CC(F)(F)C2)nc1Cl)C3c1cnc(N(C)C)s1 (stereo not drawn)	human TPH1 (Homo sapiens (Human))	-1.72
Cc1nn2c3c(nc2s1)CCN(C(=O)COc1ccc(N2CC4CC2CO4)nc1Cl)C3c1ccc(Cl)cc1F (stereo not drawn)	human TPH1 (Homo sapiens (Human))	-2.70
CCNc1nn(C)c(C2c3c(nc4sc(C)nn34)CCN2C(=O)COc2ccc(N3CCOCC3)nc2Cl)c1C (stereo not drawn)	human TPH1 (Homo sapiens (Human))	-1.24
Cc1nn2c3c(nc2s1)CCN(C(=O)COc1ccc(N2CCOCC2)nc1Cl)C3c1ncc(C(=O)N(C)C)s1 (stereo not drawn)	human TPH1 (Homo sapiens (Human))	-2.05
Cc1nn2c3c(nc2s1)CCN(C(=O)COc1ccc(C(=O)NO)nc1Cl)C3c1ccc(Cl)cc1F (stereo not drawn)	human TPH1 (Homo sapiens (Human))	-1.85
CNC(=O)c1csc(C2c3c(nc4sc(C)nn34)CCN2C(=O)COc2ccc(N3CCOCC3)nc2Cl)n1 (stereo not drawn)	human TPH1 (Homo sapiens (Human))	-2.30
Cc1nn2c3c(nc2s1)CCN(C(=O)COc1ccc(NS(=O)(=O)C2CC2)cc1Cl)C3c1ccc(Cl)cc1F (stereo not drawn)	human TPH1 (Homo sapiens (Human))	-2.00
Cc1nn2c3c(nc2s1)CCN(C(=O)COc1ccc(C2CC2)cc1Cl)C3c1ccc(Cl)cc1F (stereo not drawn)	human TPH1 (Homo sapiens (Human))	-2.40
Cc1nn2c3c(nc2s1)CCN(C(=O)COc1ccc(N2CCOCC2)nc1Cl)C3c1ccc(C(=O)N(C)C)o1 (stereo not drawn)	human TPH1 (Homo sapiens (Human))	-1.92
